assay: small-molecule binders of probe aNOTCH2, primary screen, biochemical, small-molecule microarray, 635/667 nm fluorescence (AID 1121); details: higher = more signal;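 further: score merges feature fluorescence read at 667 nm with its signal to noise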
Below, each entry is listed alongside its reported composite z-score.
measure: composite z-score

[
  {
    "compound": "CC(C)(C)OC(=O)CC[C@]1(C(=O)NCc2ccccc2)N=C(c2ccc(OCCCO)cc2)O[C@H]1c1ccccc1CN=[N+]=[N-]",
    "recordedValue": -0.127
  },
  {
    "compound": "O=C1c2ccccc2[C@](Cc2ccccc2I)(C(=O)NCC(F)(F)F)[C@H](c2ccc(CO)cc2)N1C1CCCCC1",
    "recordedValue": -0.0956
  },
  {
    "compound": "COCCOC(=O)N1C(=O)[C@@]2(c3cc(C#CCCO)ccc31)[C@H](C(=O)Nc1nc3ccccc3s1)[C@H]1C(=O)O[C@H](c3ccccc3)[C@H](c3ccccc3)N1[C@@H]2c1ccccc1OCCO",
    "recordedValue": 0.297
  },
  {
    "compound": "COC(=O)c1c2oc(c1C(=O)OC)C(=O)N(Cc1ccccc1)Cc1cn(nn1)C[C@H](Cc1ccccc1)NC(=O)N[C@H](CO)CC2",
    "recordedValue": -0.14
  },
  {
    "compound": "[N-]=[N+]=Nc1ccccc1[C@@H]1OC(c2ccc(OCCCO)cc2)=N[C@]1(Cc1ccccc1)C(=O)NCC(O)CO (some centres undefined)",
    "recordedValue": 0.178
  },
  {
    "compound": "COC(=O)c1c2oc(c1C(=O)OC)C(=O)N(C)Cc1cn(nn1)C[C@H](Cc1ccccc1)NC(=O)N[C@H](CO)CC2",
    "recordedValue": -0.18
  },
  {
    "compound": "COc1ccccc1CN1C(=O)c2ccccc2[C@@]2(Cc3ccccc3N(CC(F)(F)F)C2=O)[C@@H]1c1ccc(CO)cc1",
    "recordedValue": 0.156
  },
  {
    "compound": "CC(CO)N1C(=O)[C@@H]2[C@H]3C(=O)OCC=C[C@H]3OC23C=CCN(CCN2CCOCC2)C(=O)[C@@H]13 (some centres undefined)",
    "recordedValue": -0.117
  },
  {
    "compound": "O=C(NCC(F)(F)F)[C@@H]1c2ccccc2C(=O)N(Cc2ccccc2C(F)(F)F)[C@H]1c1ccc(CO)cc1",
    "recordedValue": 0.0667
  },
  {
    "compound": "C=CCC(OC(C)=O)[C@@H]1[C@@H](N(Cc2cccc3ccccc23)C(=O)Cc2ccc(OC)cc2)c2cc(OCCCO)ccc2N1C(=O)c1ccc2ccccc2n1 (some centres undefined)",
    "recordedValue": -0.0515
  },
  {
    "compound": "O=C1OCCC=C[C@H]2OC34C=CCN(Cn5nnc6ccccc65)C(=O)[C@H]3N(CCCCCCO)C(=O)[C@@H]4C12 (some centres undefined)",
    "recordedValue": -0.0532
  },
  {
    "compound": "CCOC(=O)C[C@H]1[C@H](OC(=O)c2cc3ccccc3oc2=O)[C@@H](NC(=O)c2ccc(-c3ccccc3)cc2)c2cc(OCCCO)ccc2N1C(=O)c1ccccc1",
    "recordedValue": -0.0971
  },
  {
    "compound": "O=C(N1CCCCC1)[C@@]1(CCS(=O)(=O)c2ccccc2)COC(c2ccc(OCCCO)cc2)=N1",
    "recordedValue": 0.207
  },
  {
    "compound": "COc1ccc(NC(=O)O[C@H]2[C@H](OC(=O)Nc3ccccc3)[C@H](OC(=O)Nc3ccccc3)[C@@H](OC)O[C@@H]2CO)cc1",
    "recordedValue": 0.28
  },
  {
    "compound": "COc1cc2c(cc1OC)CN(C(=O)[C@@H]1[C@H]3C(=O)O[C@H](c4ccccc4)[C@H](c4ccccc4)N3[C@H](c3ccc(OCCO)cc3)[C@@]13C(=O)Nc1ccccc13)CC2",
    "recordedValue": -0.114
  },
  {
    "compound": "COc1ccc(CCNC(=O)[C@@H]2c3ccccc3C(=O)N(Cc3cc(C(F)(F)F)cc(C(F)(F)F)c3)[C@H]2c2ccc(CO)cc2)cc1",
    "recordedValue": -0.149
  },
  {
    "compound": "CCOC(=O)C[C@H]1[C@H](OC(=O)Cc2ccc3c(c2)OCO3)[C@@H](NC(=O)CC(C)C)c2cc(OCCCO)ccc2N1C(=O)Cc1ccc(OC)cc1",
    "recordedValue": -0.0288
  },
  {
    "compound": "COc1cc2c(cc1O)C(C)N(Cc1ccc([N+](=O)[O-])o1)CC2 (centres undefined)",
    "recordedValue": 0.0746
  },
  {
    "compound": "C=C(/C(=C/C[C@@H](OC(C)=O)c1cccc(OCCO)c1)c1cc(C(=O)OC)ccc1OC)C(C)C",
    "recordedValue": -0.177
  },
  {
    "compound": "[N-]=[N+]=NCc1ccccc1C[C@@]1(C(=O)NCc2ccccc2)N=C(c2ccc(OCCCO)cc2)O[C@@H]1c1ccccc1N=[N+]=[N-]",
    "recordedValue": -0.0527
  },
  {
    "compound": "[N-]=[N+]=NCc1ccccc1C[C@]1(C(N)=O)N=C(c2ccc(OCCCO)cc2)O[C@H]1c1ccccc1",
    "recordedValue": -0.1
  },
  {
    "compound": "CN1C(=O)C2C=CC(C(O)c3cccc4ccccc34)N(N3CCCCC3)C2C1=O (centres undefined)",
    "recordedValue": 0.0502
  },
  {
    "compound": "[N-]=[N+]=Nc1ccccc1C[C@]1(C(=O)N2CCOCC2)N=C(c2ccc(OCCCO)cc2)O[C@H]1c1ccccc1",
    "recordedValue": -0.204
  },
  {
    "compound": "Cc1ccc(S[C@]2(C(=O)O)CC(=O)N(Cc3ccccc3Cl)[C@@H]2c2ccc(CO)cc2I)cc1",
    "recordedValue": -0.269
  },
  {
    "compound": "C=CCC(OC(C)=O)[C@@H]1[C@@H](N(Cc2cccc3ccccc23)C(=O)c2cccc3ccccc23)c2cc(OCCCO)ccc2N1C(=O)c1ccc(-c2ccccc2)cc1 (some centres undefined)",
    "recordedValue": -0.143
  },
  {
    "compound": "CC(=O)c1ccc(C(O)C2C=CC3C(=O)N(c4ccccc4)C(=O)C3N2Nc2ccc(C#N)cc2)cc1 (centres undefined)",
    "recordedValue": -0.0023
  },
  {
    "compound": "CN(C)C(=O)[C@@]1(CCS(=O)(=O)c2ccccc2)N=C(c2ccc(OCCCO)cc2)O[C@H]1c1ccccc1",
    "recordedValue": -0.115
  },
  {
    "compound": "O=C(NCC(F)(F)F)[C@@H]1c2ccccc2C(=O)N(Cc2cc(F)cc(C(F)(F)F)c2)[C@H]1c1ccc(CO)cc1",
    "recordedValue": -0.0644
  },
  {
    "compound": "CCCCCCc1nc(-c2cc(C)c(OC)c(C)c2)c(C)c2c1[Si](C(C)C)(C(C)C)OC2",
    "recordedValue": -0.209
  }
]
